test system: HepG2 cells; assay: MTT cytotoxicity assay, HepG2; assay type: cell-based, human; conditions: Homo sapiens, HepG2, 48 h, 48 h exposure
quantity-name: IC50

Annotate the molecule Cc1ccc2[nH]c3c(c2c1)C[C@@]1(C)C(CC[C@]2(C)C1CC=C1C4[C@@H](C)[C@H](C)CC[C@]4(C(=O)NCCCCN4CCN(C)CC4)CC[C@]12C)C3(C)C (stereo partly drawn) with its measured IC50.
~1 µM

Annotate the molecule Cc1ccc2[nH]c3c(c2c1)C[C@@]1(C)C(CC[C@]2(C)C1CC=C1C4[C@@H](C)[C@H](C)CC[C@]4(C(=O)NCCN4CCN(C)CC4)CC[C@]12C)C3(C)C (stereo partly drawn) with its measured IC50.
~1 µM

Annotate the molecule Cc1ccc2[nH]c3c(c2c1)C[C@@]1(C)C(CC[C@]2(C)C1CC=C1C4[C@@H](C)[C@H](C)CC[C@]4(C(=O)NCCCN4CCN(C)CC4)CC[C@]12C)C3(C)C (stereo partly drawn) with its measured IC50.
~1 µM

---

IC50 values for the molecules below.
Test system: LO2 cells
Experiment: MTT cytotoxicity assay, normal hepatocyte LO2
Format: cell-based
Settings: Homo sapiens, L02, 48 h exposure, normal hepatocyte cell line
Protocol: The in vitro cytotoxic activities of synthesized compounds were evaluated against two human hepatocarcinoma cell lines (SMMC-7721 and HepG2) and the human normal hepatocyte cell line (LO2) via MTT assay. All tested compounds were dissolved in DMSO and the stock solutions were diluted by DMEM medium before treatment of the cultured cells. […] Cell lines were obtained from American Tissue Culture Collection (ATCC). […] Absorption at 570 nm was measured with an ELISA plate reader. […]
Answer format: numeric, µM implied, no suffix.

Annotate the molecule Cc1ccc2[nH]c3c(c2c1)C[C@@]1(C)C(CC[C@]2(C)C1CC=C1C4[C@@H](C)[C@H](C)CC[C@]4(C(=O)NCCCCN4CCCCC4)CC[C@]12C)C3(C)C (stereo partly drawn) with its measured IC50.
18.7

Next:
Annotate the molecule Cc1ccc2[nH]c3c(c2c1)C[C@@]1(C)C(CC[C@]2(C)C1CC=C1C4[C@@H](C)[C@H](C)CC[C@]4(C(=O)NCCCCN)CC[C@]12C)C3(C)C (stereo partly drawn) with its measured IC50.
15.2

Annotate the molecule Cc1ccc2[nH]c3c(c2c1)C[C@@]1(C)C(CC[C@]2(C)C1CC=C1C4[C@@H](C)[C@H](C)CC[C@]4(C(=O)NCCN)CC[C@]12C)C3(C)C (stereo partly drawn) with its measured IC50.
29.6

Annotate the molecule CCN(CC)CCCCNC(=O)[C@]12CC[C@@H](C)[C@H](C)C1C1=CCC3[C@@]4(C)Cc5c([nH]c6ccc(C)cc56)C(C)(C)C4CC[C@@]3(C)[C@]1(C)CC2 (stereo partly drawn) with its measured IC50.
28.4

Annotate the molecule Cc1ccc2[nH]c3c(c2c1)C[C@@]1(C)C(CC[C@]2(C)C1CC=C1C4[C@@H](C)[C@H](C)CC[C@]4(C(=O)NCCN(C)C)CC[C@]12C)C3(C)C (stereo partly drawn) with its measured IC50.
31.1

---

system: HepG2 cells; test: MTT cytotoxicity assay, HepG2; format: cell-based, human; conditions: Homo sapiens, HepG2, 48 h, 48 h exposure
quantity-name: IC50 (µM)
Answer format: numeric, µM implied, no suffix.

# example entries with known answers
Annotate the compound Cc1ccc2[nH]c3c(c2c1)C[C@@]1(C)C(CC[C@]2(C)C1CC=C1C4[C@@H](C)[C@H](C)CC[C@]4(C(=O)NCCCCN(C)C)CC[C@]12C)C3(C)C (some centres unmarked) [6b] with its measured IC50.
2.91

Annotate the compound CCN(CC)CCCNC(=O)[C@]12CC[C@@H](C)[C@H](C)C1C1=CCC3[C@@]4(C)Cc5c([nH]c6ccc(C)cc56)C(C)(C)C4CC[C@@]3(C)[C@]1(C)CC2 (some centres unmarked) [5c] with its measured IC50.
1.2

Annotate the compound Cc1ccc2[nH]c3c(c2c1)C[C@@]1(C)C(CC[C@]2(C)C1CC=C1C4[C@@H](C)[C@H](C)CC[C@]4(C(=O)NCCN4CCOCC4)CC[C@]12C)C3(C)C (some centres unmarked) [4e] with its measured IC50.
10.7

Next:
Annotate the compound COc1cc([C@@H]2c3cc4c(cc3[C@@H](O[C@@H]3O[C@@H]5CO[C@@H](C)O[C@H]5[C@H](O)[C@H]3O)[C@H]3COC(=O)[C@H]23)OCO4)cc(OC)c1O [VP-16, etoposide, reference compound] with its measured IC50.
0.57

Annotate the compound Cc1ccc2[nH]c3c(c2c1)C[C@@]1(C)C(CC[C@]2(C)C1CC=C1C4[C@@H](C)[C@H](C)CC[C@]4(C(=O)NCCN(C)C)CC[C@]12C)C3(C)C (some centres unmarked) [4b] with its measured IC50.
4.11

Annotate the compound Cc1ccc2[nH]c3c(c2c1)C[C@@]1(C)C(CC[C@]2(C)C1CC=C1C4[C@@H](C)[C@H](C)CC[C@]4(C(=O)NCCCN4CCCCC4)CC[C@]12C)C3(C)C (some centres unmarked) [5d] with its measured IC50.
1.04

---

target: Human Topoisomerase IIα (Homo sapiens, UniProt P11388); construct: purchased USB, Affymetrix, Waltham, MA, USA; test: Topoisomerase II relaxation assay (supercoiled pBR322); format: biochemical; details: 100 μM compound; read-out: Topo II Inhibition (%) 100 μM
Sequence (P11388 whole entry): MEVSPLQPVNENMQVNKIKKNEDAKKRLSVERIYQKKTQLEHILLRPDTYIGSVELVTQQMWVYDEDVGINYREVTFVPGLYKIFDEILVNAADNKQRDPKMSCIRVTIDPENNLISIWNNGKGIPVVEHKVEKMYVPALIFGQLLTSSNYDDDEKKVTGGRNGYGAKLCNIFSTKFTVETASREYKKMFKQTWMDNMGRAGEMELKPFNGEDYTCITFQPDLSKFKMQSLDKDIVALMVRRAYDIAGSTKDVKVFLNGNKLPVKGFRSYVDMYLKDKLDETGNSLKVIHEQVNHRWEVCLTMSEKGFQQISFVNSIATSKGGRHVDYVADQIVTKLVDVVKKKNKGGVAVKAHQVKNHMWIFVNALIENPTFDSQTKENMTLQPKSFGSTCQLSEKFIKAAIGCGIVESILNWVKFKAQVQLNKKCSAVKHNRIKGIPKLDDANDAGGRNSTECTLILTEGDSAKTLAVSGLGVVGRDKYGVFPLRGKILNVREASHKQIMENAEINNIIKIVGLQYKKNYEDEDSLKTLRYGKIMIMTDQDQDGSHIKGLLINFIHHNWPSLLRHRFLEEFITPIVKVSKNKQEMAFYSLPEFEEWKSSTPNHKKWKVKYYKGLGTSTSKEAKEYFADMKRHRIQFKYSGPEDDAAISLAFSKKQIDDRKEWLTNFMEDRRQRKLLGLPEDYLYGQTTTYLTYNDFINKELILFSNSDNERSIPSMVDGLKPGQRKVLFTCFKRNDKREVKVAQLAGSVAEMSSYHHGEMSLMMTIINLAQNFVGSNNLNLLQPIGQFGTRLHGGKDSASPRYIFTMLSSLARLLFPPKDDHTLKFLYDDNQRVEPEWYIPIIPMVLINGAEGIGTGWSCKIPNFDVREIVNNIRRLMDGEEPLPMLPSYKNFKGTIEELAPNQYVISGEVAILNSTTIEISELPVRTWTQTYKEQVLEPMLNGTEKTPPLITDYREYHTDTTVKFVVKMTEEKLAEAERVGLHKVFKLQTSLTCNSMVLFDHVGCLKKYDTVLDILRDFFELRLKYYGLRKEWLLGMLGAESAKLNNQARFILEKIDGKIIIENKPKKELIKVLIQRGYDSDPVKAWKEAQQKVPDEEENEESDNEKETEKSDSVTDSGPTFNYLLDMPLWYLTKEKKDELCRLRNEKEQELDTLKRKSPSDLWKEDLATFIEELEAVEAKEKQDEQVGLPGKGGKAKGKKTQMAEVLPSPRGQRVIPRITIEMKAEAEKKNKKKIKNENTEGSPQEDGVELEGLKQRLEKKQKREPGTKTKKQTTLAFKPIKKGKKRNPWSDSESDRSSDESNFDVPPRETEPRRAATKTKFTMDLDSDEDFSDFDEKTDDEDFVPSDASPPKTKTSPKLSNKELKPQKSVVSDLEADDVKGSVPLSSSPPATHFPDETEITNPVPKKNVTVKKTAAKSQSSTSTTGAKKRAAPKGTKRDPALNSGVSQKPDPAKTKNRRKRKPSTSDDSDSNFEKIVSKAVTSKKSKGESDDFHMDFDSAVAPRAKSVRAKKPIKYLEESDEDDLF
quantity-name: inhibition at 100 µM (%)
Answer format: numeric, % implied, no suffix.

# example entries with known answers
Annotate the molecule Cc1ccc2[nH]c3c(c2c1)C[C@@]1(C)C(CC[C@]2(C)C1CC=C1C4[C@@H](C)[C@H](C)CC[C@]4(C(=O)NCCCNC(=O)[C@]45CC[C@@H](C)[C@H](C)C4C4=CCC6[C@@]7(C)Cc8c([nH]c9ccc(C)cc89)C(C)(C)C7CC[C@@]6(C)[C@]4(C)CC5)CC[C@]12C)C3(C)C (stereo partly drawn) [7b] with its measured inhibition at 100 µM.
17.8

Annotate the molecule Cc1ccc2[nH]c3c(c2c1)C[C@@]1(C)C(CC[C@]2(C)C1CC=C1C4[C@@H](C)[C@H](C)CC[C@]4(C(=O)NCCCN4CCN(C)CC4)CC[C@]12C)C3(C)C (stereo partly drawn) [5f] with its measured inhibition at 100 µM.
83.5

Let us examine a further case.
Annotate the molecule Cc1ccc2[nH]c3c(c2c1)C[C@@]1(C)C(CC[C@]2(C)C1CC=C1C4[C@@H](C)[C@H](C)CC[C@]4(C(=O)NCCCCN4CCN(C)CC4)CC[C@]12C)C3(C)C (stereo partly drawn) [6f] with its measured inhibition at 100 µM.
81.8
